# Test system: MDA-MB-231 breast
# test-summary: NCI tumour cell line growth inhibition, 48 h
measurement-name: TGI

The following molecules have reported results that may help.
// returns TGI for CN1CCN(CCCCCOc2cc(O)c3c(=O)cc(-c4ccccc4)oc3c2)CC1 with MDA-MB-231 breast; value = 4.53 µM

// returns TGI for Nc1ncc(-c2ccc3ncnc(N4CCc5cc(F)c(Cl)cc54)c3c2)cc1C=O with MDA-MB-231 breast; value = > 100 µM

// returns TGI for COc1cc2c(cc1OC)C1CN3CCCC3C(O)C1c1cc(OC)c(OC)cc1-2 (stereo not given) with MDA-MB-231 breast; value = > 100 µM

// returns TGI for c1ccc(CN2C3C4N(Cc5ccccc5)C2C2N(Cc5ccccc5)C(C(N2Cc2ccccc2)N4Cc2ccccc2)N3Cc2ccccc2)cc1 with MDA-MB-231 breast; value = > 100 µM

Kindly review the next molecule as well.
// returns TGI for O=C(c1ccc(Cl)c(Cl)c1)N(C(=S)OC12CC3CC(CC(C3)C1)C2)c1ccccc1 with MDA-MB-231 breast; value = > 100 µM

---

# System: MDA-MB-435
# test-summary: NCI tumour cell line growth inhibition, 48 h
measurement-name: TGI

The following compounds have reported results that may help.
// returns TGI for CSc1ncc2c(C#N)c3n(C)c4ccccc4n3c(=O)c2n1 with MDA-MB-435; value = > 100 µM

// returns TGI for Cc1[nH]c(N)nc(=S)c1CCCNc1ccccc1 with MDA-MB-435; value = > 100 µM

// returns TGI for C#CCC(O)c1ccc(OC)c(OCc2ccccc2)c1 (stereo not drawn) with MDA-MB-435; value = > 100 µM

// returns TGI for COc1ccc(CCn2ccc(C)n2)c(OC)c1 with MDA-MB-435; value = > 100 µM

// returns TGI for O=C(N[C@H](CO)[C@H](O)c1ccc([N+](=O)[O-])cc1)C(Cl)Cl with MDA-MB-435; value = > 100 µM

// returns TGI for COc1cc(C(=O)/C=C/c2cccnc2Nc2ccc(Cl)cc2)cc(OC)c1OC with MDA-MB-435; value = 3.36 µM

Quick one: give me TGI for each item below, same order please.
1. Cn1ccc(S(=O)(=O)N2CCC[C@H](Nc3nccc(-c4c(-c5cccc(O)c5)nc5occn45)n3)C2)n1
2. C=C(Cl)[C@](Cl)(CBr)CC[C@@H](Br)C(C)(C)Cl
3. O=[N+]([O-])c1ccc(C2Nn3c(nnc3-c3cccc([N+](=O)[O-])c3)S2)cc1 (stereo not drawn)
4. CN1CCOC1(C)c1ccccc1 (stereo not drawn)

1. 29.3 µM
2. 4.03 µM
3. > 100 µM
4. > 100 µM

---

# Test system: NCI-H226 lung
# test-summary: NCI tumour cell line growth inhibition, 48 h
measurement-name: TGI

Reported TGI for OC(Cc1cnnc2ccccc12)C(Cl)(Cl)Cl (stereo not given) was > 10 µM

Reported TGI for COC(=O)C1=C(C)NC(CF)=C(C(=O)OC)C1c1cccc2c(=O)c3ccccc3oc12 (stereo not given) was > 100 µM

Reported TGI for COC(=O)CSc1cc(Cl)c(C)cc1S(=O)(=O)Nc1n[nH]c(N)n1 was > 10 µM

Reported TGI for CSc1ncc2c(C#N)c3n(C)c4ccccc4n3c(=O)c2n1 was > 100 µM

Kindly review the next compound as well.
Reported TGI for CCc1cccc(C(C)C)c1NC(=O)C(=O)Nn1c(=S)[nH]c2ccccc2c1=O was > 100 µM

Numbers sourced from PubChem BioAssay (NCI).
